ASSAY TARGET: human TLR9 (Homo sapiens)
Sequence (Q9NR96 26-1032): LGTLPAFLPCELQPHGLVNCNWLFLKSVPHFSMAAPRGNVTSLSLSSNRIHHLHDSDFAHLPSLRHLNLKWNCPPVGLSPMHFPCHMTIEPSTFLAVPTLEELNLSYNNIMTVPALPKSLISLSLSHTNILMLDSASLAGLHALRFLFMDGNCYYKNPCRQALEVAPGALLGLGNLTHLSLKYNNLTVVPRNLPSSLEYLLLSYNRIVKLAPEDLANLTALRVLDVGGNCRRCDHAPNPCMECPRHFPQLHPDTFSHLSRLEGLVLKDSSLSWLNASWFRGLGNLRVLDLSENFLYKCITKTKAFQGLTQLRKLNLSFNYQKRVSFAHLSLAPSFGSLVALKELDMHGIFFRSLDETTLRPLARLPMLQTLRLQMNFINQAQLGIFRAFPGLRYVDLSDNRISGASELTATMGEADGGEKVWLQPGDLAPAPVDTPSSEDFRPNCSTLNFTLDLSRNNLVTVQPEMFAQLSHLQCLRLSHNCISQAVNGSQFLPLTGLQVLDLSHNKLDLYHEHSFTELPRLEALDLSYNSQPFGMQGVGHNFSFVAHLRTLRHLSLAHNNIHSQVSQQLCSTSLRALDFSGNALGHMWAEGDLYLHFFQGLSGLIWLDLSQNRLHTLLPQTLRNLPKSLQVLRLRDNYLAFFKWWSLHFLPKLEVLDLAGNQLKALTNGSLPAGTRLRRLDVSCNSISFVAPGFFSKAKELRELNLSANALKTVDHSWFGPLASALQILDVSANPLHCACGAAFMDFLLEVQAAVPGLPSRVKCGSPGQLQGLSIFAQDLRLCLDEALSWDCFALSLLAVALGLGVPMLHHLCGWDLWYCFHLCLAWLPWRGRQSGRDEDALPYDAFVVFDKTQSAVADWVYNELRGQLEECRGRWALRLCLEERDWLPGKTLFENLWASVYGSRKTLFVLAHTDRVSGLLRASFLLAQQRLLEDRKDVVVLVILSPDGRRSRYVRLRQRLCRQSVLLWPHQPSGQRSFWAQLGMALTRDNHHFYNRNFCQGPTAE
PROCEDURE DETAILS: HEK293-Blue-hTLR-9 cells assay
STUDY CONDITIONS: HEK293-Blue-hTLR9 cells, ODN2006 stimulation, 20 hrs, SEAP reporter; read-out: HEK/hTLR9 IC50
PROPERTY: IC50

Observe how each entry below is paired with its result.
SUBSTANCE SMILES	OBSERVED RESULT
[2H]c1ccc2c(N3C[C@@H](C)N4Cc5nc(N6CC[C@@](C)(N)C6)ccc5[C@H]4C3)ccc(C#N)c2n1	236 nM
[2H]c1ccc2c(N3C[C@@H](C)N4Cc5nc(N6CC[C@H](N)[C@@H](OC)C6)ccc5[C@H]4C3)ccc(C#N)c2n1	305 nM
[2H]c1ccc2c(N3C[C@@H](C)N4Cc5nc(O[C@H]6CCNC6)ccc5[C@H]4C3)ccc(C#N)c2n1	274 nM
[2H]c1ccc2c(N3C[C@@H](C)N4Cc5nc(N6CCC(C)(N)CC6)ccc5[C@H]4C3)ccc(C#N)c2n1	142 nM
[2H]c1ccc2c(N3C[C@@H](C)N4Cc5nc(N6CC[C@H]7CNC[C@H]76)ccc5[C@H]4C3)ccc(C#N)c2n1	186 nM
[2H]c1ccc2c(N3C[C@@H](C)N4Cc5nc(N6CC[C@@H](N)[C@H](OC)C6)ccc5[C@H]4C3)ccc(C#N)c2n1	202 nM
[2H]c1ccc2c(N3C[C@@H](C)N4Cc5nc(C6CCNCC6)ccc5[C@H]4C3)ccc(C#N)c2n1	232 nM
C[C@@H]1CN(c2ccc(C#N)c3ncccc23)C[C@@H]2c3ccc(N4CCNCC4)nc3CN12	252 nM

Any idea what its IC50 is? The molecule is [2H]c1ccc2c(N3C[C@@H](C)N4Cc5nc(N6CC[C@](C)(N)C6)ccc5[C@H]4C3)ccc(C#N)c2n1
139 nM

Fill blank: measured IC50 of the molecule [2H]c1ccc2c(N3C[C@@H](C)N4Cc5nc(N6CC[C@@H](OC)[C@H](N)C6)ccc5[C@H]4C3)ccc(C#N)c2n1 is ____.
212 nM

Look up IC50 for this molecule: [2H]c1ccc2c(N3C[C@@H](C)N4Cc5nc(N6CCC7(CNC7)C6)ccc5[C@H]4C3)ccc(C#N)c2n1
106 nM

State the recorded IC50 for this entry: C[C@@H]1CN(c2ccc(C#N)c3ncccc23)C[C@@H]2c3ccc(N4CC5CNCC(C4)O5)nc3CN12
195 nM

Look at this molecule and give its reported IC50. C[C@@H]1CN(c2ccc(C#N)n3nccc23)C[C@@H]2c3ccc(N4C[C@@H]5C[C@H]4CN5)nc3CN12
177 nM

Which IC50 is reported for this molecule? [2H]c1ccc2c(N3C[C@@H](C)N4Cc5nc(N6C[C@H]7C[C@@H]6CN7)ccc5[C@H]4C3)ccc(C#N)c2n1
53.4 nM

Reported IC50, molecule [2H]c1ccc2c(N3C[C@@H](C)N4Cc5nc(N6CC[C@H](OC)[C@@H](N)C6)ccc5[C@H]4C3)ccc(C#N)c2n1 : ____
316 nM

Requested field: IC50. Item: C[C@@H]1CN(c2ccc(C#N)c3ncccc23)C[C@@H]2c3cnc(N4CCNCC4)cc3CN12
449 nM
